Short version: intrinsic clearance, human liver microsomes at least 20 mL/min/kg is class 1, less is class 0.

# example entries with known answers
{"molecule": "NS(=O)(=O)OC[C@@H]1C[C@@H](n2ccc3c(N[C@H]4CCc5ccccc54)ncnc32)C[C@@H]1O", "classAssignment": "class 1"}
{"molecule": "CCCS(=O)(=O)c1nc(NC2CC2)cc(-c2ccc3c(ccn3C3CC(C)(C)NC(C)(C)C3)c2)n1", "classAssignment": "class 1"}
{"molecule": "Cc1cc(C(=O)Nc2ncccc2C)c2ccccc2n1", "classAssignment": "class 0"}
{"molecule": "O=C(Cc1cccs1)NCc1ccccc1F", "classAssignment": "class 1"}
{"molecule": "CCn1cc(NC(=O)c2ccccc2C)cn1", "classAssignment": "class 0"}
{"molecule": "O=C(NC1CCCCC1)N1CCc2nc3ccccn3c(=O)c2C1", "classAssignment": "class 0"}
{"molecule": "O=C(Nc1nccs1)C1CCN(C(=O)CN2CCc3ccccc32)CC1", "classAssignment": "class 1"}
{"molecule": "Cc1nnc(-c2ccccc2-c2ccc(O)cc2)s1", "classAssignment": "class 0"}
{"molecule": "CN(CC(N)=O)Cc1cc2c(cc1Br)OCO2", "classAssignment": "class 0"}
{"molecule": "CC1(CNC(=O)c2cncc(C3CCNCC3)n2)CCCO1 (stereo unspecified)", "classAssignment": "class 0"}

Does the molecule `C[C@@H]1Cc2ccccc2N1C(=O)Cn1nc(-c2cccc3ncccc23)oc1=O` have recorded intrinsic clearance, human liver microsomes that is 20 mL/min/kg or more?
class 1

Does the molecule `Cc1nc(O)c(Cl)c(N(C)CC2CCN(C)CC2)n1` have recorded intrinsic clearance, human liver microsomes that is 20 mL/min/kg or more?
class 0

Does the molecule `CCn1nc(CNC(=O)c2nc(C)c[nH]2)c2ccccc21` have recorded intrinsic clearance, human liver microsomes that is 20 mL/min/kg or more?
class 0

Does the molecule `CCc1cnc(NCc2ccc(CN3CCCC3)cc2)nc1` have recorded intrinsic clearance, human liver microsomes that is 20 mL/min/kg or more?
class 0

Does the molecule `O=C1N[C@@H]2CCN(C(=O)c3ccc(-c4ccccc4)cc3)[C@@H]2C(=O)N1c1ccc(F)cc1` have recorded intrinsic clearance, human liver microsomes that is 20 mL/min/kg or more?
class 0

----------
studyConditions: pH 6.8
Short version: aqueous solubility at least 40 µg/mL is 1, less is -1.

# example entries with known answers
{"molecule": "O=C(Nc1ccccc1)c1c([O-])n(-c2ccccc2)n[n+]1Cc1ccccc1", "classAssignment": -1}
{"molecule": "CCNC(=O)C1CN(c2nc(C3CC3)nc3c2CCC3)C1", "classAssignment": 1}
{"molecule": "CCc1cc(NC(=O)Cc2c(C)nc3nc(SC)nn3c2C)[nH]n1", "classAssignment": -1}
{"molecule": "Cc1noc2ncc(-c3nnc(CC(C)(C)C)o3)cc12", "classAssignment": -1}
{"molecule": "Cc1nc(N2CCOc3ccccc3C2)c2cnn(C)c2n1", "classAssignment": 1}

Does the molecule `O=C(Nc1ccccc1)Nc1ccc(OC(F)(F)F)cc1` have recorded aqueous solubility that is 40 µg/mL or more?
-1

Does the molecule `O=c1c(N2CCCC2)c(Cl)cnn1-c1ccccc1` have recorded aqueous solubility that is 40 µg/mL or more?
-1

Does the molecule `Cc1ccccc1-n1cc[nH]c(=O)c1=O` have recorded aqueous solubility that is 40 µg/mL or more?
1

Does the molecule `Cn1cc(NC(=O)c2ccccc2C(F)(F)F)cn1` have recorded aqueous solubility that is 40 µg/mL or more?
-1

Does the molecule `CN1C(=O)[C@H](Cc2ccccc2)N[C@@H]1C(C)(C)C` have recorded aqueous solubility that is 40 µg/mL or more?
-1
